- Assay target: T1, human LAP-TGFB1 Fc fusion (human)
- T1 construct: also called human LAP-TGFβ1-Fc; human LAP-TGFβ-Fc isoform 1
- T1 sequence (chain, as listed by the source limits assumed): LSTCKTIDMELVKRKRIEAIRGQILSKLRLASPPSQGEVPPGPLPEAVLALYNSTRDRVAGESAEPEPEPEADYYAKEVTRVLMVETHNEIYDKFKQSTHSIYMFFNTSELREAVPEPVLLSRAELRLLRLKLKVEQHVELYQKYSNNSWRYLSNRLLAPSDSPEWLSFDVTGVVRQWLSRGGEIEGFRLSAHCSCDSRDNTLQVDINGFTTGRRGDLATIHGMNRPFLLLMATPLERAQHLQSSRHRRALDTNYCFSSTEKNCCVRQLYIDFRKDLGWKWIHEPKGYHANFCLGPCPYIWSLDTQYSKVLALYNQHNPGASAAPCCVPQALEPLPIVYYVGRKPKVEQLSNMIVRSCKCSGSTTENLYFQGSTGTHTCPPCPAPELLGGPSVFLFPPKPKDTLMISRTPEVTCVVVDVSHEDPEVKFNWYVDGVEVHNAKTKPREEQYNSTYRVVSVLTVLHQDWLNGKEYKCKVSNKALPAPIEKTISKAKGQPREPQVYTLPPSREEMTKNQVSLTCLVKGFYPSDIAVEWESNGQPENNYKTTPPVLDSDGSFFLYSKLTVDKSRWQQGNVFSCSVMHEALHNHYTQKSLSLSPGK
- Assay details: SPR pH 6.0, antigen captured on Fab 54BLH
Recorded endpoint: log10 of koff (log10 of the value in s⁻¹)
Answers are given as log10 of koff in s⁻¹.

Here are 5 binders together with their reported answers.
Binder	log10 of koff
66BLH (Fab, V domains shown, also called 18BLM Fab) VH: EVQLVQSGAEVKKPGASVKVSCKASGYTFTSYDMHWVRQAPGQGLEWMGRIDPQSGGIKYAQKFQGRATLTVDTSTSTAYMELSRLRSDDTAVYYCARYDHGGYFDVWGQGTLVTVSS VL: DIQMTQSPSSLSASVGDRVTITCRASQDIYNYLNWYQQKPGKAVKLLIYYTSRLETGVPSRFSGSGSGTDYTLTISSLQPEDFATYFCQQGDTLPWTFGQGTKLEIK	-1.48
16BLM (antibody, human IgG1, kappa, L234A L235A, V domains shown, IgG1 L234A L235A D265S/kappa; also called 79BLH; 52BMD) VH: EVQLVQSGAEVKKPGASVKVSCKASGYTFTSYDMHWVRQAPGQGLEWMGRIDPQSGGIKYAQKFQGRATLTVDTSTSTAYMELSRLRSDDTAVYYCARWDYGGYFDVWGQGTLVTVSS VL: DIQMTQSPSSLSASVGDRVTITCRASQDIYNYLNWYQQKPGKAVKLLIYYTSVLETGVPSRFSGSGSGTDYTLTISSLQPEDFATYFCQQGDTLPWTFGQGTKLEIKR	-2.91
18BLM (antibody, human IgG1, kappa, L234A L235A, V domains shown, IgG1 L234A L235A D265S/kappa; also called 81BLH; 54BMD) VH: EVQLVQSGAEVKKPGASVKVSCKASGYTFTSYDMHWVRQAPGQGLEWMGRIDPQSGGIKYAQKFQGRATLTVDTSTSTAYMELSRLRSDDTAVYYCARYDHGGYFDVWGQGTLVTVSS VL: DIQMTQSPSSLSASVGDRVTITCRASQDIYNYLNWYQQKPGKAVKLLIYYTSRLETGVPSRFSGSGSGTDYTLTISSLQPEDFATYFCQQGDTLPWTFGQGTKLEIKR	-1.31
63BLH (Fab, V domains shown, also called 15BLM Fab; 015BLM Fab) VH: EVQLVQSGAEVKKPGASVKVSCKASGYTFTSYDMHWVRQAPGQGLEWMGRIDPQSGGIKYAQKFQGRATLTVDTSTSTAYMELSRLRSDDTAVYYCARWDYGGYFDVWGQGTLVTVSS VL: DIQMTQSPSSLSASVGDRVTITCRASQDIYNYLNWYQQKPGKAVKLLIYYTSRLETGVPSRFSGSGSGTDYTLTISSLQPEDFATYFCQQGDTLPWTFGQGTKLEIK	-2.10
54BLH (Fab, V domains shown, also called 06BLM Fab) VH: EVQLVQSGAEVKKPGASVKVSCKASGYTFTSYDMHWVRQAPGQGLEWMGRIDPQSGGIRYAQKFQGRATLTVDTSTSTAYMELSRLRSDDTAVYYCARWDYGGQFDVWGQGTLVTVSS VL: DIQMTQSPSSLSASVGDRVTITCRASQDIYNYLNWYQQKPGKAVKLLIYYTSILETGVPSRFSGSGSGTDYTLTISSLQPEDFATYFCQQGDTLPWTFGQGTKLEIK	-4.00

// query log10 of koff value for entry 64BLH (Fab, V domains shown, also called 16BLM Fab) VH: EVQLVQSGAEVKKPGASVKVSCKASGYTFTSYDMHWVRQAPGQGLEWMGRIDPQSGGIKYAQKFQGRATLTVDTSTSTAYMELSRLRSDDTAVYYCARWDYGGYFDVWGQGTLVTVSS VL: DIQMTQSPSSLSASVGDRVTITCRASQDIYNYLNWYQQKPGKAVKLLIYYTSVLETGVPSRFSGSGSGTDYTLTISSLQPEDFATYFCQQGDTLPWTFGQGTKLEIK
-2.71

Same question for 07BLM (antibody, human IgG1, kappa, L234A L235A, V domains shown, IgG1 L234A L235A D265S/kappa; also called 70BLH; 43BMD) VH: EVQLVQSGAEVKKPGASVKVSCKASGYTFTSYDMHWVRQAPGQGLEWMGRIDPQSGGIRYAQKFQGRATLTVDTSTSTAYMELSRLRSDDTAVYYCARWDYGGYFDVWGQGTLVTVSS VL: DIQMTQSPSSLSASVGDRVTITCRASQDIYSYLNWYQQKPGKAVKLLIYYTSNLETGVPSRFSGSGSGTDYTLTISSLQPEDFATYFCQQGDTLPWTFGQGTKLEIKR please.
-2.88

Numbers sourced from patent US20230272056A1.
